- target-desc: T1, recombinant human CD134:human Fcγ (IgG1) fusion protein (human, UniProt P01857-1 100-330 = IgG part, limits assumed)
- T1 construct: domain: Fcγ (IgG1); Bought (R&D Systems); also called rhuCD134
- T1 sequence (P01857 other isoform, or with tags, fused parts or gaps limits assumed): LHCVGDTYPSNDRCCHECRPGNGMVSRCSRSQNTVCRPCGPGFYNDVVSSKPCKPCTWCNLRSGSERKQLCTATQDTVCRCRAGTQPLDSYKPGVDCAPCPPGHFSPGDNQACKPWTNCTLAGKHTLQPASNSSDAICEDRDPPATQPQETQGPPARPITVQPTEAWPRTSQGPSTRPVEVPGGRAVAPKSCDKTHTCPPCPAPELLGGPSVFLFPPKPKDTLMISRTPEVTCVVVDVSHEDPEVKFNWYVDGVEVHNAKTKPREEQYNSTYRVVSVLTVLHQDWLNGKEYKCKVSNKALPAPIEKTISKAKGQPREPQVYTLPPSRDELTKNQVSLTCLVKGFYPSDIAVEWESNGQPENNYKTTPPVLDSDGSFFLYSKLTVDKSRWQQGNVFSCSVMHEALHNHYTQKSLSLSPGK
- measurement-protocol: ELISA, plate-bound CD134:Fc 50 ng/well

binder | EC50
humanized IgG4κ anti-human CD134 antibody clone 20E5 version 20E5_VL2VH1 (antibody, V domains shown, Stabilized human IgG4/κ; end of each range computed; also called 20E5_VL2H1) VH: QVQLVQSGAEVKKPGASVKVSCKASGYTFTSYVMHWVRQAPGQRLEWMGYINPYNDGTKYNEKFKGRVTITSDTSASTAYMELSSLRSEDTAVYYCANYYGSSLSMDYWGQGTLVTVSS VL: DIQMTQSPSSLSASVGDRVTITCRASQDISNYLNWYQQKPGKAVKLLIYYTSRLHSGVPSRFSGSGSGTDYTLTISSLQPEDFATYFCQQGNTLPWTFGQGTKVEIKR | ~0.1 µg/mL
humanized IgG4κ anti-human CD134 antibody clone 12H3 version 12H3_VL2VH3 (antibody, V domains shown, Stabilized human IgG4/κ; end of each range computed) VH: QVQLVQSGAEVKKPGSSVKVSCKASGYTFKDYTMHWVRQAPGQGLEWIGGIYPNNGGSTYNQNFKDRATLTVDKSTSTAYMELSSLRSEDTAVYYCARMGYHGPHLDFDVWGQGTTVTVSS VL: DIQMTQSPSSLSASVGDRVTITCKASQDVGAAVAWYQQKPGKAPKLLIYWASTRHTGVPDRFSGGGSGTDFTLTISSLQPEDFATYYCQQYINYPLTFGGGTKVEIKR | ~0.05 µg/mL
humanized IgG4κ anti-human CD134 antibody clone 12H3 version 12H3_VL1VH3 (antibody, V domains shown, Stabilized human IgG4/κ; end of each range computed; also called 12H3_VL1H3) VH: QVQLVQSGAEVKKPGSSVKVSCKASGYTFKDYTMHWVRQAPGQGLEWIGGIYPNNGGSTYNQNFKDRATLTVDKSTSTAYMELSSLRSEDTAVYYCARMGYHGPHLDFDVWGQGTTVTVSS VL: DIQMTQSPSSLSASVGDRVTITCKASQDVGAAVAWYQQKPGKAPKLLIYWASTRHTGVPSRFSGSGSGTDFTLTISSLQPEDFATYYCQQYINYPLTFGGGTKVEIKR | ~0.05 µg/mL
chimeric human IgG4κ anti-human CD134 antibody clone 20E5 (antibody, V domains shown, Murine V-regions linked to human IgG4 and human kappa constant regions) VH: EVQLQQSGPELVKPGASVKMSCKASGYTFTSYVMHWVKQKPGQGLEWIGYINPYNDGTKYNEKFKGKATLTSDKSSSTAYMELSSLTSEDSAVYYCANYYGSSLSMDYWGQGTSVTVSS VL: DIQMTQTTSSLSASLGDRVTISCRASQDISNYLNWYQQKPDGTVKLLIYYTSRLHSGVPSRFSGSGSGTDYSLTISNLEQEDIATYFCQQGNTLPWTFGGGTKLEIKR | ~0.1 µg/mL
humanized IgG4κ anti-human CD134 antibody clone 20E5 version 20E5_VL1VH2 (antibody, V domains shown, Stabilized human IgG4/κ; end of each range computed; also called 20E5_VL1H2; VL1H2) VH: QVQLVQSGAEVKKPGASVKVSCKASGYTFTSYVMHWVRQAPGQRLEWIGYINPYNDGTKYNEKFKGRATITSDTSASTAYMELSSLRSEDTAVYYCANYYGSSLSMDYWGQGTLVTVSS VL: DIQMTQSPSSLSASVGDRVTITCRASQDISNYLNWYQQKPGKAPKLLIYYTSRLHSGVPSRFSGSGSGTDYTLTISSLQPEDFATYYCQQGNTLPWTFGQGTKVEIKR | ~0.15 µg/mL
